target: Cytochrome P450 3A4 (Homo sapiens) (UniProt P08684); experiment: Cytochrome panel assay with activity outcomes; conditions: recombinant CYP, pro-luciferin dealkylation, luminescence, p450-cyp3a4; series mostly up to 57.1 µM
Sequence (P08684 whole entry, looked up): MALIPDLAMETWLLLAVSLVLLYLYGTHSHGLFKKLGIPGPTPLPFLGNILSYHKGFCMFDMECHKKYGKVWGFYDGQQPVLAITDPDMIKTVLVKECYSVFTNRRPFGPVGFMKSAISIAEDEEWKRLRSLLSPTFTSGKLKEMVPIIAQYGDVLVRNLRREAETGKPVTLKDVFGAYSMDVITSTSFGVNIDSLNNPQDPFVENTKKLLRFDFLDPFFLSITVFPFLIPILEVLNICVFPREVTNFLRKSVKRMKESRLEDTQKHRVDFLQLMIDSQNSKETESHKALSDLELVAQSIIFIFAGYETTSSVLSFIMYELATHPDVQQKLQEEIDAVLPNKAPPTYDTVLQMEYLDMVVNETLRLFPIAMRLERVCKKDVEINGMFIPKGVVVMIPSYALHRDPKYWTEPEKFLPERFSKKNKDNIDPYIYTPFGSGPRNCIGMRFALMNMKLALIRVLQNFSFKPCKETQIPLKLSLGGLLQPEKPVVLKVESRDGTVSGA
The campaign covered roughly 16,000 compounds. About 5,100 (32%) were called active. About 25% were inconclusive and are not listed. Calls come from the whole dose curve; as a rule, active = well fitted curve in the direction sought with a large enough effect; inconclusive = small, poorly fitted or top-dose-only effect, or effect the other way; inactive = no such curve, though single readings can be large or run the other way. The list shows a part of the results.
Choose one outcome from this list and give only that: active, inactive

molecule | target | qualitative label
C[C@H](NCCc1ccc(O)cc1)[C@@H](O)c1ccc(O)cc1 | Cytochrome P450 3A4 (Homo sapiens) (UniProt P08684) | inactive

Query :: Give the logged outcome of this assay for the following molecule: COc1ccc(C(C(=O)NC2CCCC2)N(Cc2ccc(F)cc2)C(=O)c2ccn[nH]2)cc1OC (centres undefined)
Result :: active

====

target: Cytochrome P450 3A4 (Homo sapiens) (UniProt P08684); experiment: Cytochrome panel assay with activity outcomes; conditions: recombinant CYP, pro-luciferin dealkylation, luminescence, p450-cyp3a4; series mostly up to 57.1 µM
About 5,100 (32%) of roughly 16,000 compounds were called active. Another 25% or so got no clear call; they are omitted. Calls follow the shape of the dose curve; as a rule, active = well fitted curve in the direction sought with a large enough effect; inconclusive = small, poorly fitted or top-dose-only effect, or effect the other way; inactive = no such curve, though single readings can be large or run the other way. This is one part of the list.
Choose one outcome from this list and give only that: t for active, f for inactive

Please review the following examples before continuing.
compound | qualitative label
COCCn1c(=S)[nH]c2cc(C(=O)NC(C)C)ccc2c1=O | f
CN(C)CCO[C@](C)(c1ccccc1)c1ccccn1 | f
Cc1ccccc1CS(=O)(=O)Cc1ccc(C(=O)NCc2cccnc2)o1 | t

Query :: Give the logged outcome of this assay for the following compound: COc1ccccc1N(CC(=O)NCC1CCCO1)C(=O)CNS(=O)(=O)c1ccc(C)cc1 (stereo unspecified)
Result :: t

Query :: Give the logged outcome of this assay for the following compound: COC(=O)[C@@]1(Cc2ccccc2)[C@H]2c3cc(C(=O)N4CCCC4)n(CCc4ccccn4)c3C[C@H]2CN1C(=O)c1ccccc1
Result :: t

Query :: Give the logged outcome of this assay for the following compound: COc1ccccc1CN(Cc1cc2cc3c(cc2[nH]c1=O)OCCO3)Cc1nnnn1Cc1ccco1
Result :: t

====

target: Cytochrome P450 3A4 (Homo sapiens) (UniProt P08684); test: Cytochrome panel assay with activity outcomes; details: recombinant CYP, pro-luciferin dealkylation, luminescence, p450-cyp3a4; series mostly up to 57.1 µM
Screen size: about 16,000 compounds; about 5,100 (32%) were called active. Inconclusive results (about 25%) are left out. Calls follow the shape of the dose curve; as a rule, active = well fitted curve in the direction sought with a large enough effect; inconclusive = small, poorly fitted or top-dose-only effect, or effect the other way; inactive = no such curve, though single readings can be large or run the other way. The list shows a part of the results.
Choose one outcome from this list and give only that: active, inactive

compound | qualitative label
Cc1ccc(C)c(S(=O)(=O)NC(CC(C)C)C(=O)O)c1 (stereo not drawn) | inactive
CCCC[C@H](CC)CN1CN(C[C@@H](CC)CCCC)CC(C)(N)C1 | inactive
CCN(CC)C[C@@H]1CCCCN1CC(=O)N1c2ccccc2C(=O)Nc2cccnc21 | active
CC(CCc1ccccc1)NS(=O)(=O)c1ccccc1 (stereo not drawn) | inactive
CC(=O)COC(=O)CCc1nc2ccccc2[nH]c1=O | inactive

Query :: Give the logged outcome of this assay for the following compound: COc1cccc(Cn2c(=O)c(-c3cccc(C#N)c3)nc3cnc(OC)nc32)c1
Result :: active

Query :: Give the logged outcome of this assay for the following compound: O=C(Nc1ccccc1)N1CCC2(CCNCC2)CC1
Result :: inactive

Query :: Give the logged outcome of this assay for the following compound: CCC(C)(C)NC(=O)c1ccc2c(c1)N(CC(=O)OC)C(=O)C(C)(C)O2
Result :: inactive

Query :: Give the logged outcome of this assay for the following compound: O=C(O)CNC(=O)[C@@H](CS)Cc1ccccc1
Result :: inactive

Query :: Give the logged outcome of this assay for the following compound: O=[N+]([O-])c1ccc(Cl)c(/C=N/N2CCN(Cc3ccccc3)CC2)c1
Result :: inactive
